Source listed as patent US20230130766A1.

# System tested: ULK1 (Homo sapiens, UniProt O75385)
# Sequence (O75385 1-1050): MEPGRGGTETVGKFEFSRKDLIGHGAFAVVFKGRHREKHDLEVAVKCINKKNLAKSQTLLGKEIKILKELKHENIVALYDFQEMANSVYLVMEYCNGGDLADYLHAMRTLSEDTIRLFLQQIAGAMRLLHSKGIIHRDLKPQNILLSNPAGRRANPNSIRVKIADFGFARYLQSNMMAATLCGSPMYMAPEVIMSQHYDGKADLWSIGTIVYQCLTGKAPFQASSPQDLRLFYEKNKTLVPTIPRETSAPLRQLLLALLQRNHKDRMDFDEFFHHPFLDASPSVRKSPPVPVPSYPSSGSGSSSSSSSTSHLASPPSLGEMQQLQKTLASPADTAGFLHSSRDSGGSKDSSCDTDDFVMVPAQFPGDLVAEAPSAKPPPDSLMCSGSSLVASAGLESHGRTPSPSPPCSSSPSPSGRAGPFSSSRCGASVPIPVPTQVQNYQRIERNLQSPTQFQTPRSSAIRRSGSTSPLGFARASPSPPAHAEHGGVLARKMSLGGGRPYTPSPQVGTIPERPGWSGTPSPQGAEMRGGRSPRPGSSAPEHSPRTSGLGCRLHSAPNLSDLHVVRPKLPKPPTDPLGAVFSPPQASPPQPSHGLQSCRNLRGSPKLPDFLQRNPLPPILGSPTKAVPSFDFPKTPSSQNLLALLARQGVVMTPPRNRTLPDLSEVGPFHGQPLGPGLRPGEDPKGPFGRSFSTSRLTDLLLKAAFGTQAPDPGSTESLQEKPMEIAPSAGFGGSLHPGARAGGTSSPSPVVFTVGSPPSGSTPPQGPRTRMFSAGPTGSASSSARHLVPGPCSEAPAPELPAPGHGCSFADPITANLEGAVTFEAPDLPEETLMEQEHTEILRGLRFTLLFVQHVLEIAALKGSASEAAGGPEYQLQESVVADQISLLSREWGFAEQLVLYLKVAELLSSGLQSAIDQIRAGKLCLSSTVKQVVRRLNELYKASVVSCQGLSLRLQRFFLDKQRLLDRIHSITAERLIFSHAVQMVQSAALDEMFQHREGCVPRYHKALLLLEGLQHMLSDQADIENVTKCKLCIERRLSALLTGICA
pIC50: −log10 of the molar value.
Readout kind: pIC50

Worked set:
O=C1CCc2cc(Nc3ncc(C(F)(F)F)c(NC4CC4)n3)ccc2N1 [Compound 131a] :: > 6.70
O=C1CCc2cc(Nc3nc(NC4Cc5ccccc5C4)ncc3C(F)(F)F)ccc2N1 [Compound 130b] :: < 5.70
CC(CCl)Nc1nc(Nc2ccc3c(c2)CCC(=O)N3)ncc1C(F)(F)F (stereo not drawn) [Compound 183c] :: < 5.70
COc1cnc(Nc2ccc3c(c2)CCC(=O)N3)nc1Nc1ccc2c(c1)CCC(=O)N2 :: < 5.70
O=C(C1CC1)N1CCc2cc(Nc3ncc(C(F)(F)F)c(NC4CC4)n3)ccc2C1 :: > 6.70

Query: Any idea what pIC50 was measured for `O=C1Cc2cc(Nc3ncc(C(F)(F)F)c(NC4CC4)n3)ccc2N1` ?
Result: > 6.70

Query: Fill in the blank: the reported pIC50 of `O=c1[nH]c2ncc(Nc3nc(Nc4ccc5c(c4)OCCO5)ncc3Br)cc2o1` is ____.
Result: > 6.70

Query: Need pIC50, item `Clc1cnc(Nc2ccccc2)nc1Nc1ccccc1`
Result: < 5.70

Query: Item OC1Nc2ccc(Nc3ncc(C(F)(F)F)c(NC4CC4)n3)cc2O1 (stereo not drawn) [Compound 208b] has what recorded pIC50?
Result: > 6.70

Query: For `COc1cc(Nc2ncc(C(F)(F)F)c(NCc3cccc(S(C)(=O)=O)c3)n2)cc(OC)c1OC` , what is its reported pIC50?
Result: > 6.70

Query: Return reported pIC50; argument: O=C1CCc2cc(Nc3nc(Nc4ccccc4N4CCOCC4)ncc3C(F)(F)F)ccc2N1 [Compound 118b]
Result: < 5.70

Query: Any idea what pIC50 was measured for `COc1ccc(Nc2nc(Nc3cc(OC)c(OC)c(OC)c3)ncc2Br)cn1` ?
Result: > 6.70

====

Reported IC50 values, ULK1 (Homo sapiens, UniProt O75385).

Example results:
FC(F)(F)c1cnc(Nc2ccc3c(c2)OCO3)nc1NC1Cc2ccccc2C1 [Compound 163b] :: > 2000 nM
FC(F)(F)c1cnc(Nc2ccc3c(c2)OCO3)nc1Nc1ccc2c(c1)OCO2 [Compound 124c] :: < 200 nM
O=C1CCc2cc(Nc3nc(NC4CC4)ncc3C(F)(F)F)ccc2N1 [Compound 131b] :: < 200 nM
CNC(=O)c1ccccc1Oc1nc(Nc2cc(Br)ccc2C)ncc1C(F)(F)F :: > 2000 nM
Oc1ccc(CCNc2ncc(C(F)(F)F)c(NC3CC3)n2)cc1 :: 200 to 2000 nM
CC(Cl)CNc1nc(Nc2ccc3c(c2)CCC(=O)N3)ncc1C(F)(F)F (stereo not drawn) [Compound 183b] :: < 200 nM
O=C1CCc2cc(Nc3ncc(C(F)(F)F)c(OCCNCCO)n3)ccc2N1 [Compound 212b] :: 200 to 2000 nM
COCCNc1nc(Nc2ccc3c(c2)CCC(=O)N3)ncc1C(F)(F)F [Compound 151a] :: < 200 nM

// moving on: another record for IC50
Query: IC50 lookup needed for `CNC(=O)c1ccccc1Oc1nc(Nc2ccccc2)ncc1Br` , thanks.
Result: > 2000 nM

====

Each item that follows carries a reported IC50.
# System tested: ULK1 (Homo sapiens, UniProt O75385)
# Sequence (O75385 1-1050): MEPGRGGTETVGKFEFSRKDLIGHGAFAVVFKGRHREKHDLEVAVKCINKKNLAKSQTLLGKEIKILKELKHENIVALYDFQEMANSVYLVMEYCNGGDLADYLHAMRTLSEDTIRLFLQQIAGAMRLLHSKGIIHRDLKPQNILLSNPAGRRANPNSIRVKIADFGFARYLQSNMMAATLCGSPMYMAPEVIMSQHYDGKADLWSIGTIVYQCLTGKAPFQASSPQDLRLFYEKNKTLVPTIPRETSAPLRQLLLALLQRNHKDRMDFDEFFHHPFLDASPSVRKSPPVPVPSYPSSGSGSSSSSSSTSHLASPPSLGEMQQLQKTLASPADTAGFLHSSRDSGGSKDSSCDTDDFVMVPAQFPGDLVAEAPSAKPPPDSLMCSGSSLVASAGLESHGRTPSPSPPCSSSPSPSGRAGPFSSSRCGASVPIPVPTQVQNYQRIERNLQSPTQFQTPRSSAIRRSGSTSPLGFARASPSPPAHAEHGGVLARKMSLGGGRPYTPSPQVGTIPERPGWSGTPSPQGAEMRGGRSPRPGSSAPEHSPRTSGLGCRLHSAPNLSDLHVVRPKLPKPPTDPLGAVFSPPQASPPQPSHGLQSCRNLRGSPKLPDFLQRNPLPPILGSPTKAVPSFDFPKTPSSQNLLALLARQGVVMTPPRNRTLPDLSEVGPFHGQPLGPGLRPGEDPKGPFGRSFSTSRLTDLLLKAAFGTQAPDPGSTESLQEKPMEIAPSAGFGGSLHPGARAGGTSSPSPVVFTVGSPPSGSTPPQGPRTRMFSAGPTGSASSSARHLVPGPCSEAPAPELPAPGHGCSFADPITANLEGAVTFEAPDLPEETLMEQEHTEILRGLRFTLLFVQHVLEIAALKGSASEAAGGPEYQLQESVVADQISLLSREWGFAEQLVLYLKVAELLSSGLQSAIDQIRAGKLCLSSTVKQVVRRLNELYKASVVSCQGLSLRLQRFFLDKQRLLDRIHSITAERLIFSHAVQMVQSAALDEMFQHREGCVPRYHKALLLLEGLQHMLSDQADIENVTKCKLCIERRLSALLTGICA

Worked cases, IC50 given:
COc1cc(Nc2ncc(Br)c(Oc3ccccc3CNC(C)=O)n2)cc(OC)c1OC :: > 2000 nM
FC(F)(F)c1cnc(Nc2cccnc2)nc1NC1CC1 :: > 2000 nM
COc1cc(Nc2ncc(Br)c(N(C)C(=O)c3ccccc3O)n2)cc(OC)c1OC [Compound 171b] :: < 200 nM
O=C1CCc2cc(Nc3nccc(NC4CC4)n3)ccc2N1 :: > 2000 nM
FC(F)(F)c1cnc(Nc2cnc3[nH]ccc3c2)nc1Nc1ccc2c(c1)OCO2 :: < 200 nM

Query: What does the data say about its IC50? Entry: O=C1CCc2cc(Nc3ncc(C(F)(F)F)c(Nc4ccc5c(c4)CCC(=O)N5)n3)ccc2N1 [Compound 120c]
Result: < 200 nM

Query: Which IC50 is listed for CN(C)c1nc(Nc2ccc3c(c2)CCC(=O)N3)ncc1C(F)(F)F [Compound 220b] ?
Result: < 200 nM

Query: Consider the compound `O=C(C1CC1)N(C(=O)C1CC1)c1ccc(Nc2ncc(C(F)(F)F)c(NC3CC3)n2)cc1` and give its measured IC50.
Result: < 200 nM

Query: Could you tell me which IC50 is on file for `CNC(=O)c1ccccc1Sc1nc(Nc2cc(OC)ccc2C)ncc1C(F)(F)F` ?
Result: > 2000 nM

Query: Suppose we examine the compound `CNC(=O)c1ccccc1Oc1nc(Nc2cc(OC)c(OC)c(OC)c2)ncc1C(F)(F)F` ; what IC50 value has been reported?
Result: < 200 nM

Query: What does the data say about its IC50? Entry: `CNC(=O)c1ccccc1Nc1nc(Nc2cc3c(cc2C)OCO3)ncc1Cl`
Result: < 200 nM

Query: Fill in the blank: the reported IC50 of `O=C1CCc2cc(Nc3ncc(Br)c(Nc4ccccn4)n3)ccc2N1` is ____.
Result: < 200 nM

Query: Requested field: IC50. Item: COc1cc(Nc2ncc(Br)c(Oc3cccc4c3N(C(C)=O)CCC4)n2)cc(OC)c1OC [Compound 335a]
Result: > 2000 nM
